biological target: Cellular tumor antigen p53 (Homo sapiens); assay: nuclear p53 accumulation, HPV+ cells – imaging, p53-positive nuclei imaging, 24 h, 48 h (AID 1508601); conditions: 24/48 h, measured here: p53 positive nuclei at 24 h, Library stock concentration: 2 mM, stronger effect = higher value
The campaign covered roughly 5,700 compounds. About 85 (1%) were called active. The sample as a whole holds a higher share of actives than the screen did.
recorded-metric: p53-positive nuclei, normalised (%)
Write the number in % without appending the unit.

COc1ccc2nc3ccc(OC)cc3c(SCCCN)c2c1: 0.00172
CC(C)c1nn(-c2c(Cl)cccc2Cl)c2nc(Cc3ccc(OCCO)cc3)[nH]c(=O)c12: 6.59
CCC(=O)N1CCN(c2ccc(-n3c(=O)ccc4cnc5ccc(-c6cnc7ccccc7c6)cc5c43)cc2C(F)(F)F)CC1: 0.287

Okay, now this compound:
Value of measured p53-positive nuclei, normalised for the entry `COc1cc(=C2C=c3ccccc3=N2)[nH]c1=Cc1[nH]c(C)cc1C` : 167

* * *

target: Cellular tumor antigen p53 (Homo sapiens); experiment: nuclear p53 accumulation, HPV+ cells – imaging, p53-positive nuclei imaging, 24 h, 48 h (AID 1508601); settings: 24/48 h, Library stock concentration: 10 mM, stronger effect = higher value
The campaign covered roughly 5,700 compounds. About 85 (1%) were called active. The entries come from a sample that favours actives as a whole.
recorded-metric: p53-positive nuclei, normalised (%)
Give a bare numeral; the unit % is implied.

COc1ccc(N2C(=O)C(=Cc3ccc([N+](=O)[O-])s3)SC2=S)cc1: 117

Looking up `CC(C)(C)Nc1nc2cc(Cl)c(Cl)cc2nc1S(C)(=O)=O` , I see its p53-positive nuclei, normalised listed as 1.33

GET /value?item= OC1CCC(Nc2ncc3nc(Nc4c(F)cc(F)cc4F)n(C4CCOC4)c3n2)CC1 (stereo unspecified) &field=p53-positive nuclei, normalised returns -0.265

response.value for CC(NC(=O)c1cc(Cl)ccc1Oc1ccc(F)cc1)c1ccc(C(=O)O)cc1 (stereo unspecified) (field: p53-positive nuclei, normalised) = -0.00827

The compound `CCCCCc1ccc(C=CC(=O)Nc2ccccc2C(=O)O)cc1` showed p53-positive nuclei, normalised equal to -0.204

// field: p53-positive nuclei, normalised; key: O=C(NOCC(O)CO)c1ccc(F)c(F)c1Nc1ccc(I)cc1F (stereo unspecified) ; value = 0.268

* * *

assay: nuclear p53 accumulation, HPV+ cells – imaging, p53-positive nuclei imaging, 24 h, 48 h (AID 1508601); conditions: 24/48 h, measured here: cell number at 24 h, Library stock concentration: 2 mM
The campaign covered roughly 5,700 compounds. About 85 (1%) were called active. The sample as a whole holds a higher share of actives than the screen did.
List of nuclei count, normalised values.
Answer with a number only, understood to be in %.

COC(=O)N1C(=O)[C@](c2ccccc2)(C2CCCC2)N1C(=O)OC: 93.9

Measured nuclei count, normalised, `O=C1SC(=Cc2ccc(OCc3cccc(B(O)O)c3)cc2)C(=O)N1Cc1ccc(F)cc1` : 110

The reported value for `Nc1ncn([C@@H]2O[C@@H](CO)[C@H](O)[C@@H]2O)c(=O)n1` in terms of nuclei count, normalised is 110

Memo: `Cc1ccc(NC(=O)c2ccc(CN3CCN(C)CC3)cc2)cc1Nc1nccc(-c2cccnc2)n1` , reported nuclei count, normalised: 91

For record `Cn1cc(CNCC2CCN(c3ncc(C(=O)NO)cn3)CC2)c2ccccc21` the listed nuclei count, normalised is 40.5

The recorded nuclei count, normalised for entry `NC(=O)c1ccc(-c2nc(-c3ccc4c(c3)OCCO4)c(-c3ccccn3)[nH]2)cc1` equals 103

Reported nuclei count, normalised of CC(C)(CO)c1cc2cc(NC(=O)C3(c4ccc5c(c4)OC(F)(F)O5)CC3)c(F)cc2n1CC(O)CO (configuration not stated) : 106

FYI, the data here is from PubChem BioAssay AID1508601.
